# TESTED_SYSTEM: T1, cynomolgus monkey BCMA (cynomolgus monkey, UniProt A0A2K5UD97 1-53)
# T1 construct: Soluble analyte in SPR; construct not described; also called cyBCMA; Cyno BCMA
# T1 sequence (A0A2K5UD97 entry or part of it): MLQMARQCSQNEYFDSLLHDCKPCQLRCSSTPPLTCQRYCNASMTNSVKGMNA
# ASSAY_EXPLANATION: SPR, IgG on chip, cyBCMA analyte
MEASURED_METRIC: kon
Give the value; after it, write the unit.

Completed entries (count: 2):
Ask: GET /values?readout=kon&item= C01_Rd4_6nM_C12 (antibody, V domains shown, IgG; also called PC1C12) VH: EVQLLESGGGLVQPGGSLRLSCAASGFTFSSYPMSWVRQAPGKGLEWVSAIGGSGGWSYYADSVKGRFTISRDNSKNTLYLQMNSLRAEDTAVYYCARYWPMDSWGQGTLVTVSS VL: EIVLTQSPGTLSLSPGERATLSCWLSQSVSSTYLAWYQQKPGQAPRLLIYDASSRAPGIPDRFSGSGSGTDFTLTISRLEPEDFAVYYCQQYSEWPLTFGQGTKVEIK
Result: 4.51e+06 M⁻¹ s⁻¹

Ask: Then what about the binder A02_Rd4_6nM_C10 (antibody, V domains shown, IgG) VH: EVQLLESGGGLVQPGGSLRLSCAASGFTFSSYAMNWVRQAPGKGLEWVSAISDSGGSCWYADSVKGRFTISRDNSKNTLYLQMNSLRAEDTAVYYCARYWPMTPWGQGTLVTVSS VL: EIVLTQSPGTLSLSPGERATLSCRASQSVEMSYLAWYQQKPGQAPRLLMYDASIRATGIPDRFSGSGSGTDFTLTISRLEPEDFAVYYCQQYAHWPLTFGQGTKVEIK ?
Result: 1.9e+06 M⁻¹ s⁻¹

More entries:
Ask: GET /values?readout=kon&item= A02_Rd4_6nM_C03 (antibody, V domains shown, IgG) VH: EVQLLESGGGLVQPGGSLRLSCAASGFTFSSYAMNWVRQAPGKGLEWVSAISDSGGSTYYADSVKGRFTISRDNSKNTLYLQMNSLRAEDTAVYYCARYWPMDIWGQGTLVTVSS VL: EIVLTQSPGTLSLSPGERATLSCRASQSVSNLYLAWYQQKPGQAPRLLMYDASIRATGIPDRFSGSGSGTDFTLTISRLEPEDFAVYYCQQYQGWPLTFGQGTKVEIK
Result: 1.17e+06 M⁻¹ s⁻¹
